- Test system: HeLa cells
- METHOD DESCRIPTION: MTS cell proliferation and/or cytotoxicity assay
- Format: cell-based, Human
- SETUP CONDITIONS: Homo sapiens, HeLa, 72 h, concentration at which 50% of antiproliferative cell response is seen; 3 days incubation; read-out: MTS Data Hella
For each entry below, report its pIC50 value.
One number for each entry, as −log10 of the molar value.

Some solved entries appear below for comparison.
| COMPOUND | NUMERIC VALUE |
| --- | --- |
| CN1CCCC1CCNC(=O)c1cn2c3c(c(N4CCC(c5cnccn5)C4)c(F)cc3c1=O)Oc1cc3ccccc3cc1-2 (stereo not shown) | 5.64 |
| CN(C)CCCCNC(=O)c1cn2c3c(c(NCCCCN(C)C)c(F)cc3c1=O)Oc1cc3c(cc1-2)oc1ccccc13 | 5.43 |
| CN1CCCC1CCNC(=O)c1cn2c3c(c(N4CC[C@@H](N)C4)c(F)cc3c1=O)Oc1ccccc1-2 (stereo partly shown) | 6.66 |

For the compound CN(C)CCCCNc1c(F)cc2c(=O)c(C(=O)NCCCN3CCOCC3)cn3c4cc5c(cc4oc1c23)c(=O)c1ccccc15 , what pIC50 is on record?
5.77

Data provenance: patent US7507727B2
